- experimentNotes: Tanguay_ZF_120hpf_SNOU_legacy: (Legacy) Oregon State University Tanguay Lab 120 Hour Post-fertilization zebrafish Assay for Snout Malformation (AID 2283637)
Inconclusive results are not listed. Active and inactive are the calls of the source. Rule for the calls: active = hit-call score of the fitted dose curve at least 0.9, where 1 is the maximum; inconclusive = response in the unintended direction; inactive = score below 0.9.
// allowed return values: active, inactive

Solved cases below.
| compound | labelClass |
| --- | --- |
| N#Cc1ccc(N(CC(N)=O)CC(F)(F)F)cc1C(F)(F)F | inactive |
| CCSC(=O)N(CC)C1CCCCC1 | inactive |
| O=C(N[C@H]1CN2CCC1CC2)c1cc2ccoc2cn1 | inactive |
| O=C(NC(=O)c1c(F)cccc1F)Nc1cc(Cl)c(OC(F)(F)C(F)F)c(Cl)c1 | inactive |
| c1cc2ccc3cccc4ccc(c1)c2c34 | inactive |

Answer briefly: the call reported for Cc1ccccc1CO[C@@H]1C[C@@]2(C(C)C)CC[C@]1(C)O2 in this assay.
inactive

Also need Clc1ccc(Cl)cc1 , thanks.
inactive

Also need CCC(C)(c1ccc(O)cc1)c1ccc(O)cc1 , thanks.
active

Also need CCCCCCOC(=O)c1ccccc1C(=O)OCCCCCC , thanks.
inactive

Also need Clc1ccc(C(c2ccccc2Cl)C(Cl)(Cl)Cl)cc1 (stereo not given) , thanks.
inactive

Also need Cc1cccc([N+](=O)[O-])c1 , thanks.
inactive

Also need Oc1ccc(C(c2ccc(O)cc2)(C(F)(F)F)C(F)(F)F)cc1 , thanks.
active

Also need CCCCCCCCCC[N+](C)(C)CCCCCCCCCC , thanks.
inactive

Also need C[C@]12CCC(=O)C=C1CC[C@@H]1[C@@H]2CC[C@]2(C)C(=O)CC[C@@H]12 , thanks.
active

Also need CC1=C2C[C@H]3[C@@H](CC=C4C[C@@H](O)CC[C@@]43C)[C@@H]2CC[C@]12O[C@@H]1C[C@H](C)CN[C@H]1[C@H]2C , thanks.
active

---

- testedTarget: Bile acid receptor (Homo sapiens)
- experimentNotes: OT_FXR_FXRSRC1_0480: Odyssey Thera (OT) 8-hour HEK293T Protein-Complementation Assay for Farnesoid X receptor/SRC-1 Co-activator (AID 2283383)
- Description: OT_FXR_FXRSRC1_0480 is a cell-based assay that uses HEK293T, a human kidney cell line, with measurements taken at 8 hours after chemical dosing in a 384-well plate.OT_FXR_FXRSRC1_0480 is one of one assay component(s) measured or calculated from the OT_FXR_FXRSRC1_0480 assay. […] This assay endpoint, OT_FXR_FXRSRC1_0480, was analyzed in the positive analysis fitting direction relative to DMSO as the negative control and baseline of activity. […]
Records with an inconclusive call do not appear. Active and inactive are the calls of the source. Rule for the calls: active = hit-call score of the fitted dose curve at least 0.9, where 1 is the maximum; inconclusive = response in the unintended direction; inactive = score below 0.9.
// allowed return values: yes (1) for active, no (0) for inactive

| compoundStructureString | labelClass |
| --- | --- |
| Cc1cc2c3c(c1)C(c1ccccc1)=N[C@@H](NC(=O)c1ccncc1)C(=O)N3CC2 | yes (1) |
| CN(C)c1nc(=O)n(C2CCCCC2)c(=O)n1C | no (0) |
| CCCCCCCCOC(=O)c1ccccc1C(=O)OCCCCCCCC | no (0) |

Answer briefly: the call reported for COc1ccc(O)c(C(C)(C)C)c1 in this assay.
no (0)

Also need c1ccc(-c2ccccc2)cc1 , thanks.
no (0)

Also need NS(=O)(=O)C(F)(F)C(F)(F)C(F)(F)C(F)(F)C(F)(F)C(F)(F)C(F)(F)C(F)(F)F , thanks.
yes (1)

Also need OCC(O)CO , thanks.
no (0)

---

- experimentNotes: BSK_3C_Proliferation: Cell Proliferation Assessment in the BioMAP Diversity Plus: 3C Assay (AID 2283006)
- conditionDetails: primary human endothelial cells (HUVEC)
Active and inactive are the calls of the source. How the source made its calls: active means hit-call score of the fitted dose curve at least 0.9, where 1 is the maximum; inactive means score below 0.9.
// allowed return values: Y = active, N = inactive

Solved cases below.
| compound | labelClass |
| --- | --- |
| CCCN(CCC)N=O | N |
| C1CC2OC2CC1C1CO1 (stereo not drawn) | N |

Answer briefly: the call reported for O=NN(c1ccccc1)c1ccccc1 in this assay.
Y

---

- Read-out: Intercellular Adhesion Molecule 1 (ICAM1), ICAM1 (gene 3383)
- experimentNotes: BSK_KF3CT_ICAM1: BioMAP Diversity Plus: KF3CT Assay for Intercellular Adhesion Molecule 1 (ICAM1) Biomarker Activity (AID 2283067)
- conditionDetails: primary human keratinocytes with fibroblasts; actives raise or lower the signal
The source made the active and inactive calls. How the source made its calls: active means hit-call score of the fitted dose curve at least 0.9, where 1 is the maximum; inactive means score below 0.9.
// allowed return values: active, inactive

| compound | labelClass |
| --- | --- |
| ClC1=C(Cl)[C@]2(Cl)[C@@H]3[C@@H]4C[C@@H]([C@H]5O[C@@H]45)[C@@H]3[C@@]1(Cl)C2(Cl)Cl | inactive |

Answer briefly: the call reported for CCCCCCCCCc1ccc(O)cc1 in this assay.
active

Also need O=S(=O)(O)C(F)(F)C(F)(F)C(F)(F)C(F)(F)C(F)(F)C(F)(F)F , thanks.
inactive

Also need CO/C=C(/C(=O)OC)c1ccccc1COc1cccc(C(F)(F)F)n1 , thanks.
inactive

Also need CC#Cc1cc(C)nc(Nc2ccccc2)n1 , thanks.
inactive

Also need c1cc2ccc3cccc4ccc(c1)c2c34 , thanks.
inactive

Also need O=C(O)C(F)(F)C(F)(F)C(F)(F)C(F)(F)C(F)(F)F , thanks.
inactive

---

- experimentNotes: STM_H9_OrnCyssISnorm_ratio: Stemina devTOX quickPredict H9 human embryonic stem cell (hESC)-based Assay for Ornithine (ORN):Cystine (CYSS) Ratio (AID 2283714)
Inconclusive results are not listed. Activity calls are given as the source filed them. The calls were made as follows: active = hit-call score of the fitted dose curve at least 0.9, where 1 is the maximum; inconclusive = response in the unintended direction; inactive = score below 0.9.
// allowed return values: active, inactive

| molecule | labelClass |
| --- | --- |
| Sc1ccccc1 | inactive |
| C1CC2OC2CC1C1CO1 (centres undefined) | active |
| CCC(=O)O[C@H]1CC[C@H]2[C@@H]3CCC4=CC(=O)CC[C@]4(C)[C@H]3CC[C@]12C | active |
| O=NN(c1ccccc1)c1ccccc1 | inactive |
| CCC(C)c1cc([N+](=O)[O-])cc([N+](=O)[O-])c1O (centres undefined) | inactive |

Now take the following molecule into account.
Answer briefly: the call reported for CCCCCCCCOC(=O)c1ccccc1C(=O)OCCCCCCCC in this assay.
inactive

---

- Read-out: MYC, MYC (gene 4609)
- experimentNotes: LTEA_HepaRG_MYC: Life Technologies and Expression Analysis (LTEA) Assay for MYC using HepaRG (AID 2283518)
- conditionDetails: mRNA level, 48 h; actives raise or lower the signal
Active and inactive are the calls of the source. The calls were made as follows: active = hit-call score of the fitted dose curve at least 0.9, where 1 is the maximum; inactive = score below 0.9.
// allowed return values: y = active, n = inactive

| compound | labelClass |
| --- | --- |
| Cc1cc2c3c(c1)C(c1ccccc1)=N[C@@H](NC(=O)c1ccncc1)C(=O)N3CC2 | n |
| O=NN(c1ccccc1)c1ccccc1 | n |
| CCCCCCOC(=O)c1ccccc1C(=O)OCCCCCC | n |
| Oc1c(Cl)c(Cl)c(Cl)c(Cl)c1Cl | y |
| CCCCCCCCCc1ccc(O)cc1 | n |
| CC(C)(c1ccccc1)c1ccc(O)cc1 | n |
| O=S(=O)(O)C(F)(F)C(F)(F)C(F)(F)C(F)(F)C(F)(F)C(F)(F)F | n |
| O=C(O)C(F)(F)C(F)(F)C(F)(F)C(F)(F)C(F)(F)F | n |
| Clc1ccc(C(c2ccccc2Cl)C(Cl)(Cl)Cl)cc1 (configuration not stated) | n |
| c1ccc(-c2ccccc2)cc1 | n |

Answer briefly: the call reported for C[C@]12CCC(=O)C=C1CC[C@@H]1[C@@H]2CC[C@]2(C)C(=O)CC[C@@H]12 in this assay.
n

Also need CC#Cc1cc(C)nc(Nc2ccccc2)n1 , thanks.
y

---

- testedTarget: human Retinoic Acid Receptor gamma (RARg), RARG (gene 5916)
- experimentNotes: ATG_RARg_TRANS: Attagene TRANS-FACTORIAL HepG2 Assay for human Retinoic Acid Receptor gamma (RARg) (AID 2283009);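 for AC50: AC50 is for reporter induction above DMSO meaning RARg activation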
Records with an inconclusive call do not appear. Calls of active or inactive are those of the source. The calls were made as follows: active = hit-call score of the fitted dose curve at least 0.9, where 1 is the maximum; inconclusive = response in the unintended direction; inactive = score below 0.9.
reportedMetric: AC50

| molecule | AC50 |
| --- | --- |
| ClC1=C(Cl)[C@]2(Cl)[C@@H]3[C@@H]4C[C@@H]([C@H]5O[C@@H]45)[C@@H]3[C@@]1(Cl)C2(Cl)Cl | 2.12 µM (active) |
| CCC(C)c1cc([N+](=O)[O-])cc([N+](=O)[O-])c1O (stereo unspecified) | inactive |
| Nc1ccc(-c2ccc(N)cc2)cc1 | inactive |
| Clc1ccc(C(c2ccccc2Cl)C(Cl)(Cl)Cl)cc1 (stereo unspecified) | inactive |
| CN(C)CCO | inactive |

Report AC50 for NS(=O)(=O)C(F)(F)C(F)(F)C(F)(F)C(F)(F)C(F)(F)C(F)(F)C(F)(F)C(F)(F)F tested on human Retinoic Acid Receptor gamma (RARg), RARG (gene 5916).
inactive

Also need C[C@]12CCC(=O)C=C1CC[C@@H]1[C@@H]2CC[C@]2(C)C(=O)CC[C@@H]12 , thanks.
inactive

Also need CC(C)(O)C(=O)Nc1ccc([N+](=O)[O-])c(C(F)(F)F)c1 , thanks.
inactive
